- run-description: small molecules captured by biotinylated probe aFSTL3 – biochemical, small-molecule microarray, fluorescence 635/667, stem cell growth factor project, primary screen (AID 1064);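 note: measures binding of the biotinylated anti-FSTL3 antibody to printed compounds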
- condition-parameters: higher = more signal
readout-kind: composite z-score

// Input: `COCCCNC(=O)[C@@]1(Cc2ccccc2I)c2ccccc2C(=O)N(Cc2ccccc2)[C@H]1c1ccc(CO)cc1` . Output its composite z-score only.
0.094

// Input: O=C1OCC=C[C@H]2OC34C=CCN(c5ccc6ccccc6c5)C(=O)[C@H]3N(CCO)C(=O)[C@@H]4[C@@H]12 (some centres not stated) . Output its composite z-score only.
0.982

// Input: `COC(=O)[C@@]1(Cc2ccccc2)[C@H]2c3cc(C(=O)N(C)C)n(Cc4ccccc4)c3C[C@H]2CN1C(=O)c1ccccc1` . Output its composite z-score only.
0.0252

// Input: `[N-]=[N+]=NCc1ccccc1C[C@]1(C(=O)N2CCOCC2)N=C(c2ccc(OCCCO)cc2)O[C@H]1c1ccccc1` . Output its composite z-score only.
0.303

// Input: `C=C[C@H](OC)[C@@H](OC(=O)Nc1ccc(SC)cc1)c1ccc(OCCO)cc1` . Output its composite z-score only.
0.0168

// Input: [N-]=[N+]=NCc1ccccc1[C@H]1OC(c2ccc(OCCCO)cc2)=N[C@@]1(Cc1ccccc1)C(=O)NCC(O)CO (some centres not stated) . Output its composite z-score only.
0.835

// Input: C=CCC(OC(C)=O)[C@@H]1[C@@H](N(Cc2cc3ccccc3o2)C(=O)c2ccc(-c3ccccc3)cc2)c2cc(OCCCO)ccc2N1C(=O)Cc1ccc2ccccc2c1 (some centres not stated) . Output its composite z-score only.
0.179
